# credit: patent US6348311B1

# SYSTEM TESTED: ATM kinase (Homo sapiens, UniProt Q13315)
# Construct: The full-length cDNA encoding NH2-terminal, FLAG-tagged wild-type ATM; made in house; host or cells: 293T cells, transient transfection with pcDNA-FLAG-ATMwt, anti-FLAG M2 immunoprecipitate on beads
# Sequence (Q13315 whole entry): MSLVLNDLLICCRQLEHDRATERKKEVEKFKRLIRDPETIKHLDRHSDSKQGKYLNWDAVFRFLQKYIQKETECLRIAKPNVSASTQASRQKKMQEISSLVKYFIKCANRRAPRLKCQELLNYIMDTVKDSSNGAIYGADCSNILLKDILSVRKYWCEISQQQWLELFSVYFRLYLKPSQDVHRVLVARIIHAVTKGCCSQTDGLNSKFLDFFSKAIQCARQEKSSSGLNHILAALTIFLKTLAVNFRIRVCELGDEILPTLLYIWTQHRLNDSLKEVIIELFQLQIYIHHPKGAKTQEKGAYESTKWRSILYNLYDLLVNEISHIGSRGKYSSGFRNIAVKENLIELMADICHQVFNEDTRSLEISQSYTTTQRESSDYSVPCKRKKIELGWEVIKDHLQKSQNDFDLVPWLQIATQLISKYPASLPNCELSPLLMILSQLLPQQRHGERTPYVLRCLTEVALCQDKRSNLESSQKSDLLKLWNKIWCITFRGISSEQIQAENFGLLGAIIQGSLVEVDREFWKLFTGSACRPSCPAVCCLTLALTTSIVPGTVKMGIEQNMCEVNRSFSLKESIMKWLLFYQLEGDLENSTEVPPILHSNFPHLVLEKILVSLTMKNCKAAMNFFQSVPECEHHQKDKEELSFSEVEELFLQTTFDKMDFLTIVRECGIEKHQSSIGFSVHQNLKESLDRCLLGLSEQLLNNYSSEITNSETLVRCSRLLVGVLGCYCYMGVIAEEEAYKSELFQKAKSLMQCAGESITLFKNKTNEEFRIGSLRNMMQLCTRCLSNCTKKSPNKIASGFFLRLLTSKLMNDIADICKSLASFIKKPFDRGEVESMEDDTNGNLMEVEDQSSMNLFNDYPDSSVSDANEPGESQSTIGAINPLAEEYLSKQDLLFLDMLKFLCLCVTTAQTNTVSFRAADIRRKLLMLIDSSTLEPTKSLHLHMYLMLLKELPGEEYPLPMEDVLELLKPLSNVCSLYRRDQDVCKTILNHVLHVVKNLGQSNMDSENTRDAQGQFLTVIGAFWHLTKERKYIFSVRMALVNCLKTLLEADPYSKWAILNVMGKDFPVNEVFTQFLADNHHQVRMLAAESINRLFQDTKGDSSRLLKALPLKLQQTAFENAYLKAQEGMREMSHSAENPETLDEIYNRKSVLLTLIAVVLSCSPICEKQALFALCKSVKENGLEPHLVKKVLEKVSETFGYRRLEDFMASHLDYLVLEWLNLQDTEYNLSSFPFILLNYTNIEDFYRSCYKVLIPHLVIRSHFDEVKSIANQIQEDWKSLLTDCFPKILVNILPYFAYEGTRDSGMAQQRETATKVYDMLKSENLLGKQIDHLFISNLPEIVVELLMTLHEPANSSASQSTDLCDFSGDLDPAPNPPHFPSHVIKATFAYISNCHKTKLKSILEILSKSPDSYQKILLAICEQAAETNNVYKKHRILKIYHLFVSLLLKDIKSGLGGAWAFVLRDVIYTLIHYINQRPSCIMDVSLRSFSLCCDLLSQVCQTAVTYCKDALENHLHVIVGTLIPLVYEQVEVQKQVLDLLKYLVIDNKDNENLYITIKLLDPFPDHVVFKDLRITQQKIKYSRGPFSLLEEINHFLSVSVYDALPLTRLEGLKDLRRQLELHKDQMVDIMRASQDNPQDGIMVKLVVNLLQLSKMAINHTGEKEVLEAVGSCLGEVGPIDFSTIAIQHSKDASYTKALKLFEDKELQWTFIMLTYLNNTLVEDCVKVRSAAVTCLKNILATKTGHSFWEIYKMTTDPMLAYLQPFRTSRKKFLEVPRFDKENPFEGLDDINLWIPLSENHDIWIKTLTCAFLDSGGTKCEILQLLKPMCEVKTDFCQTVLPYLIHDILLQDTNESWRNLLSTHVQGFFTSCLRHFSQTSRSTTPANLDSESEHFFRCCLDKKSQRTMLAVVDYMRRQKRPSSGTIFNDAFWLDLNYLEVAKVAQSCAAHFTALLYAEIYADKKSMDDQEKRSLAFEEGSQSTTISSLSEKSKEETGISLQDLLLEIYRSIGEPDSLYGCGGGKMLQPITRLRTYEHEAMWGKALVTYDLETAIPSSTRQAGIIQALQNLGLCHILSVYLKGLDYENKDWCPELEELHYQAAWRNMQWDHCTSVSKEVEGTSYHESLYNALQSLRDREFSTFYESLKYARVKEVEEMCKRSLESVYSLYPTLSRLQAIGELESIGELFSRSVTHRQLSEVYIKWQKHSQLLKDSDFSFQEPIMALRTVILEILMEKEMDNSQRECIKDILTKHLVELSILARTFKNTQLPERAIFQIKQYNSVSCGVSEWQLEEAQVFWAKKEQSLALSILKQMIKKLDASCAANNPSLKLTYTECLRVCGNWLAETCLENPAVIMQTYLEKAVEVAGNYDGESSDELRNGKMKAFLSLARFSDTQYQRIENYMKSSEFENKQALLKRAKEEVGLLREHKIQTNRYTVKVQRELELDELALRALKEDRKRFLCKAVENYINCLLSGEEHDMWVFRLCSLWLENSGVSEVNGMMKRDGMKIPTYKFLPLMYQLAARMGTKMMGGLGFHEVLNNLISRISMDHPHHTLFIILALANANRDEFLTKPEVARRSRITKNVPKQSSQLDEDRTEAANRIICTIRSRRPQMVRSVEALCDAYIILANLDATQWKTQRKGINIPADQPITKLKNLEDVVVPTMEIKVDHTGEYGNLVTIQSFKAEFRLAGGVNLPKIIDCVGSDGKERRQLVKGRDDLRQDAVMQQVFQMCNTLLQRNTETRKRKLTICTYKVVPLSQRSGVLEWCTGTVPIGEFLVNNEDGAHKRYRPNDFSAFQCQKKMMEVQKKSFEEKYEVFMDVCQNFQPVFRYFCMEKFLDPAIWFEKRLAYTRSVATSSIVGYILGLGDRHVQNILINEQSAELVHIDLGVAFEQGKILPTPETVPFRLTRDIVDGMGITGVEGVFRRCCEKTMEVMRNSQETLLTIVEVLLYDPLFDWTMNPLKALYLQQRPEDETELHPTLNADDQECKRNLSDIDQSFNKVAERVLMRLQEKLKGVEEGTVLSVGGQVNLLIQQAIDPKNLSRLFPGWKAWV
# EXPERIMENT DESCRIPTION: In vitro kinase assay, ATM with GST-peptide / GST-fusion substrates
# Assay type: biochemical
# STATED CONDITIONS: GST-peptide substrate; relative to the p53ser15 site
Where no end group is shown, it is not given here.
The label is YES for Relative Phosphorylation (%) ATM below 20% and NO for Relative Phosphorylation (%) ATM equal to or exceeding 20%.

>  <SUBSTANCE>
BRCA1 (SQ2): GST-peptide DCSGLSSQSDILTT (SEQ ID NO:33), S1387 (also: GST fusion)

>  <SYSTEM TESTED>
ATM kinase (Homo sapiens, UniProt Q13315)

>  <ASSIGNED CLASS>
NO

$$$$
>  <SUBSTANCE>
ATM S2761: GST-peptide YKVVPLSQRSGVLE (SEQ ID NO:25), S2761 of ATM (also: GST fusion)

>  <SYSTEM TESTED>
ATM kinase (Homo sapiens, UniProt Q13315)

>  <ASSIGNED CLASS>
YES

$$$$
>  <SUBSTANCE>
p53 S37: GST-peptide VLSPLPSQAMDDLM (SEQ ID NO:8), p53 serine 37 site (not fully specified (N-terminus); also: GST fusion; listed as Homo sapiens)

>  <SYSTEM TESTED>
ATM kinase (Homo sapiens, UniProt Q13315)

>  <ASSIGNED CLASS>
YES

$$$$
>  <SUBSTANCE>
MRE11 (SQ3): GST-peptide RARALRSQSEESAS (SEQ ID NO:13), S531 (also: GST fusion)

>  <SYSTEM TESTED>
ATM kinase (Homo sapiens, UniProt Q13315)

>  <ASSIGNED CLASS>
YES

$$$$
>  <SUBSTANCE>
p115-RhoGEF: GST-peptide RLRPLLSQLGGNSV (SEQ ID NO:27), S899 (not fully specified (N-terminus); also: GST fusion; listed as Homo sapiens)

>  <SYSTEM TESTED>
ATM kinase (Homo sapiens, UniProt Q13315)

>  <ASSIGNED CLASS>
YES

$$$$
>  <SUBSTANCE>
CtIP: GST-peptide DPGADLSQYKMDVT (SEQ ID NO:44), S664 (also: GST fusion)

>  <SYSTEM TESTED>
ATM kinase (Homo sapiens, UniProt Q13315)

>  <ASSIGNED CLASS>
YES

$$$$
>  <SUBSTANCE>
PTS (123F2): GST-peptide WETPDLSQAEIEQK (SEQ ID NO:37), S61 (not fully specified (N-terminus); also: GST fusion)

>  <SYSTEM TESTED>
ATM kinase (Homo sapiens, UniProt Q13315)

>  <ASSIGNED CLASS>
NO

$$$$
>  <SUBSTANCE>
CUT1: GST-peptide GASPVLSQGVDPRS (SEQ ID NO:36), S1615 (also: GST fusion)

>  <SYSTEM TESTED>
ATM kinase (Homo sapiens, UniProt Q13315)

>  <ASSIGNED CLASS>
YES

$$$$
>  <SUBSTANCE>
RAD17 (SQ2): GST-peptide ASELPASQPQPFSA (SEQ ID NO:19), S656 (not fully specified (N-terminus); also: GST fusion; listed as Homo sapiens)

>  <SYSTEM TESTED>
ATM kinase (Homo sapiens, UniProt Q13315)

>  <ASSIGNED CLASS>
NO

$$$$
>  <SUBSTANCE>
RPA34kD (SQ1): GST-peptide FPAPAPSQAEKKSR (SEQ ID NO:40), S33 (not fully specified (N-terminus); also: GST fusion; listed as Homo sapiens)

>  <SYSTEM TESTED>
ATM kinase (Homo sapiens, UniProt Q13315)

>  <ASSIGNED CLASS>
YES

$$$$

Now for another entry.
Exercise: Take the substance BRCA1 (SQ1): GST-peptide SASLFSSQCSELED (SEQ ID NO:32), S1298 (also: GST fusion) and say whether its Relative Phosphorylation (%) ATM is less than 20%.
Key: YES

---

# SYSTEM TESTED: ATM kinase (Homo sapiens)
# Construct: The full-length cDNA encoding NH2-terminal, FLAG-tagged wild-type ATM; made in house; host or cells: 293T cells, transient transfection with pcDNA-FLAG-ATMwt, anti-FLAG M2 immunoprecipitate on beads
# EXPERIMENT DESCRIPTION: In vitro kinase assay, ATM with GST-peptide / GST-fusion substrates
# Assay type: biochemical
# STATED CONDITIONS: GST-peptide substrate; relative to the p53ser15 site
Where no end group is shown, it is not given here.
RECORDED ENDPOINT: Relative Phosphorylation (%) ATM

Example substances with recorded Relative Phosphorylation (%) ATM:
>  <SUBSTANCE>
RPA34kD (SQ3): GST-peptide TGNVEISQVTIVGI (SEQ ID NO:42), S72 (not fully specified (N-terminus); also: GST fusion; listed as Homo sapiens)

>  <RECORDED ENDPOINT>
Relative Phosphorylation (%) ATM

>  <REPORTED>
<1%

$$$$
>  <SUBSTANCE>
MRE11 (SQ4): GST-peptide SASRGGSQRGRAFK (SEQ ID NO:14), S590 (also: GST fusion)

>  <RECORDED ENDPOINT>
Relative Phosphorylation (%) ATM

>  <REPORTED>
<1%

$$$$

Here is the next item to consider.
Exercise: Which Relative Phosphorylation (%) ATM value is on record for BRCA2: GST-peptide KVSPYLSQFQQDKQ (SEQ ID NO:29), S2156 (also: GST fusion) ?
Key: <1%

---

# SYSTEM TESTED: DNA-PK (Homo sapiens)
# EXPERIMENT DESCRIPTION: In vitro kinase assay, purified DNA-PK with GST-peptide / GST-fusion substrates
# Assay type: biochemical
# STATED CONDITIONS: GST-peptide substrate; relative to the p53ser15 site
Where no end group is shown, it is not given here.
# Relative Phosphorylation (%) DNA-PK per record follows

>  <SUBSTANCE>
RPA34kD (SQ3): GST-peptide TGNVEISQVTIVGI (SEQ ID NO:42), S72 (not fully specified (N-terminus); also: GST fusion; listed as Homo sapiens)

>  <REPORTED>
<1%

$$$$
>  <SUBSTANCE>
RPA34kD (SQ1): GST-peptide FPAPAPSQAEKKSR (SEQ ID NO:40), S33 (not fully specified (N-terminus); also: GST fusion; listed as Homo sapiens)

>  <REPORTED>
<1%

$$$$

Here is the next item to consider.
Exercise: So what Relative Phosphorylation (%) DNA-PK did BRCA2: GST-peptide KVSPYLSQFQQDKQ (SEQ ID NO:29), S2156 (also: GST fusion) get with DNA-PK (Homo sapiens)?
Key: <1%

---

# Relative Phosphorylation (%) ATM per record follows
# SYSTEM TESTED: ATM kinase (Homo sapiens)
# Construct: The full-length cDNA encoding NH2-terminal, FLAG-tagged wild-type ATM; made in house; host or cells: 293T cells, transient transfection with pcDNA-FLAG-ATMwt, anti-FLAG M2 immunoprecipitate on beads
# EXPERIMENT DESCRIPTION: In vitro kinase assay, ATM with GST-peptide / GST-fusion substrates;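 note: immunoprecipitated ATM incubated with [γ-32P]ATP at 30 °C for 20 min, substrates resolved by SDS-PAGE and radiolabel incorporation quantified by PhosphorImager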
# Format: biochemical
# STATED CONDITIONS: GST-peptide substrate; relative to the p53ser15 site
Where no end group is shown, it is not given here.

Exercise: Which Relative Phosphorylation (%) ATM value is on record for PI-3K: GST-peptide DLLMYLSQLVQALK (SEQ ID NO:26), S397 (also: GST fusion) ?
Key: <1%

---

# SYSTEM TESTED: DNA-PK (Homo sapiens)
# EXPERIMENT DESCRIPTION: In vitro kinase assay, purified DNA-PK with GST-peptide / GST-fusion substrates
# Format: biochemical
# STATED CONDITIONS: GST-peptide substrate; relative to the p53ser15 site
Where no end group is shown, it is not given here.
# Relative Phosphorylation (%) DNA-PK per record follows
Entry rule: numbers only, all in %.

Example substances with recorded Relative Phosphorylation (%) DNA-PK:
>  <SUBSTANCE>
RAD17 (SQ2): GST-peptide ASELPASQPQPFSA (SEQ ID NO:19), S656 (not fully specified (N-terminus); also: GST fusion; listed as Homo sapiens)

>  <SYSTEM TESTED>
DNA-PK (Homo sapiens)

>  <RECORDED ENDPOINT>
Relative Phosphorylation (%) DNA-PK

>  <REPORTED>
25

$$$$
>  <SUBSTANCE>
BRCA1 (SQ1): GST-peptide SASLFSSQCSELED (SEQ ID NO:32), S1298 (also: GST fusion)

>  <SYSTEM TESTED>
DNA-PK (Homo sapiens)

>  <RECORDED ENDPOINT>
Relative Phosphorylation (%) DNA-PK

>  <REPORTED>
6

$$$$
>  <SUBSTANCE>
MRE11 (SQ1): GST-peptide QQLFYISQPGSSVV (SEQ ID NO:11), S264 (also: GST fusion)

>  <SYSTEM TESTED>
DNA-PK (Homo sapiens)

>  <RECORDED ENDPOINT>
Relative Phosphorylation (%) DNA-PK

>  <REPORTED>
10

$$$$
>  <SUBSTANCE>
DNA 5B: GST-peptide QPEPPVSQSEISEP (SEQ ID NO:38), S72 (also: GST fusion)

>  <SYSTEM TESTED>
DNA-PK (Homo sapiens)

>  <RECORDED ENDPOINT>
Relative Phosphorylation (%) DNA-PK

>  <REPORTED>
15

$$$$
>  <SUBSTANCE>
CHK1 (SQ1): GST-peptide NVKYSSSQPEPRTG (SEQ ID NO:16), S317 (also: GST fusion)

>  <SYSTEM TESTED>
DNA-PK (Homo sapiens)

>  <RECORDED ENDPOINT>
Relative Phosphorylation (%) DNA-PK

>  <REPORTED>
2

$$$$

Exercise: Which Relative Phosphorylation (%) DNA-PK value is on record for ATM S440: GST-peptide PLLMILSQLLPQQR (SEQ ID NO:24), S440 of ATM (also: GST fusion) ?
Key: 7

Exercise: Quick one: β3A Adaptin: GST-peptide ELKPVLSQG (SEQ ID NO:43), S1092 (not fully specified (N-terminus); also: GST fusion; listed as Homo sapiens)
Key: 44

Exercise: Quick one: WRN (SQ2): GST-peptide TIGMHLSQAVKAGC (SEQ ID NO:20), S1292 (not fully specified (N-terminus); also: GST fusion; listed as Homo sapiens)
Key: 5
